What IC50 was measured for each of the following?
Tested on: HTT mRNA
Test: Gene panel canonical junction qPCR assay, HTT CJ mRNA decrease
Format: cell-based, human
Conditions: Homo sapiens, decrease in CJ mRNA levels, read-out: HTT IC50

compound=Cc1cn2cc(NC(=O)c3sc(C4CCNCC4)cc3Cl)cc(F)c2n1 readout_kind=IC50 assay_result="100 to 1000 nM"
compound=Cc1cn2cc(NC(=O)c3cc(F)c(C4CCNCC4)s3)cc(F)c2n1 readout_kind=IC50 assay_result="> 10000 nM"
compound=Cc1cn2nc(NC(=O)c3sc([C@H]4CCN[C@@H](C)C4)cc3F)cc(C)c2n1 readout_kind=IC50 assay_result="100 to 1000 nM"
compound=Cc1cn2cc(NC(=O)c3sc(N(C)C4CC(C)(C)NC(C)(C)C4)cc3F)cc(F)c2n1 readout_kind=IC50 assay_result="100 to 1000 nM"
compound=Cc1cn2nc(NC(=O)c3sc([C@@H]4CCN[C@@H](C)C4)cc3F)cc(C)c2n1 readout_kind=IC50 assay_result="< 100 nM"

Each compound below has a reported value. Please supply its IC50.
1. Cc1cn2cc(NC(=O)c3sc(C4CCNCC4)cc3F)nc2c(C)n1
2. Cc1cn2cc(-c3cc(F)c(C(=O)N[C@H]4CCN[C@H](C)C4)s3)nc2c(C)n1
3. Cc1cn2cc(NC(=O)c3sc(N4CCNC(C)C4)cc3F)c(C)cc2n1 (centres unmarked)

1: > 10000 nM; 2: > 10000 nM; 3: 1000 to 10000 nM

----------
Tested on: MYB mRNA
Assay: Splicing RT-qPCR assay, MYB canonical (CJ) and alternative (AJ) junction mRNA
Assay type: cell-based
Conditions: Homo sapiens, decrease in canonical junction mRNA, A673 or K562 cells, 24 hours
Description: Compounds described herein were used to modulate RNA transcript abundance in cells. The expression of a target mRNA was measured by detecting the formation of an exon-exon junction in the canonical transcript (CJ). A compound mediated exon-inclusion event was detected by observing an increase in formation of a new junction with an alternative exon (AJ). Real-time qPCR assays were used to detect these splicing switches and interrogate the potency of various compounds towards different target genes. […]
READOUT KIND: IC50

compound="Cc1cn2cc(NC(=O)c3ccc(N4CCN(C)C(C)C4)c4ccnnc34)cc(F)c2n1 (centres unmarked)" system_tested="MYB mRNA" readout_kind=IC50 assay_result="100 to 1000 nM"

Each compound below has a reported value. Please supply its IC50.
1. Cc1cn2cc(NC(=O)c3ccc(N4CC(C)(C)NC(C)(C)C4)c4nccnc34)cc(F)c2n1
2. Cc1cn2cc(NC(=O)c3ccc(NC4CCNC4)c4nccnc34)cc(F)c2n1 (centres unmarked)
3. COc1ccc2c(N3C[C@H](C)N[C@@H](C)C3)ccc(C(=O)Nc3cc(F)c4nc(C)cn4c3)c2n1

1: < 100 nM; 2: 100 to 1000 nM; 3: < 100 nM

Reported IC50 for "Cc1cn2cc(NC(=O)c3ccc(N4C[C@H](C)N[C@@H](C)C4)c4nccnc34)cc(F)c2n1" : what is it? < 100 nM

----------
What IC50 was measured for each of the following?
Tested on: HiBiT-tagged MYB protein
Test: HiBiT protein abundance assay, MYB (K562 HiBiT knock-in cells)
Type: cell-based, human
Settings: 24 hours

# example entries with known answers
compound=Cc1cn2cc(NC(=O)c3ccc(N4CCNC5(CCOCC5)C4)c4nccnc34)cc(F)c2n1 readout_kind=IC50 assay_result="100 to 1000 nM"
compound=Cc1ccc2c(N3CCNCC3)ccc(C(=O)Nc3cc(F)c4nc(C)cn4c3)c2n1 readout_kind=IC50 assay_result="< 100 nM"
compound=Cc1cn2cc(NC(=O)c3ccc(N4C[C@@H](C)N[C@@H](C)C4)c4nccnc34)cc(F)c2n1 readout_kind=IC50 assay_result="< 100 nM"
compound=Cc1cn2cc(NC(=O)c3ccc(N4C[C@@H](C)N[C@@H](C)C4)c4ccnnc34)nc(C)c2n1 readout_kind=IC50 assay_result="< 100 nM"
compound="Cc1cn2cc(NC(=O)c3ccc(N4CCC(NC(C)(C)C)C4)c4ccnnc34)cc(F)c2n1 (centres unmarked)" readout_kind=IC50 assay_result="1000 to 10000 nM"

Each compound below has a reported value. Please supply its IC50.
1. Cn1cc2ccc(NC(=O)c3ccc(N4CCNCC4)c4ccnnc34)cc2n1
2. C[C@@H]1CN(c2ccc(C(=O)Nc3cc(F)c4ncccc4c3)c3nccnc23)C[C@H](C)N1

["> 10000 nM", "1000 to 10000 nM"]

----------
Test system: HTT mRNA
Assay: Gene panel canonical junction qPCR assay, HTT CJ mRNA decrease
Type: cell-based, human
Settings: Homo sapiens, decrease in CJ mRNA levels, read-out: HTT IC50
What IC50 was measured for each of the following?

compound=Cc1cn2cc(NC(=O)c3sc([C@@H]4CCN[C@@H](C)C4)cc3F)cc(F)c2n1 assay_result="100 to 1000 nM"
compound="Cc1cn2cc(NC(=O)c3sc(N4CCC(N5CCCC5)C4)cc3F)cc(F)c2n1 (stereo not drawn)" assay_result="1000 to 10000 nM"
compound=Cn1cc2c(F)cc(NC(=O)c3sc(C4CCNCC4)cc3F)cc2n1 assay_result="100 to 1000 nM"
compound=Cc1cn2cc(NC(=O)c3sc(N4CC5(CNC5)C4)cc3F)cc(F)c2n1 assay_result="> 10000 nM"
compound="Cc1cn2cc(NC(=O)c3sc(N4CCNC(C)C4)cc3F)cc(F)c2n1 (stereo not drawn)" assay_result="1000 to 10000 nM"

For the next question, use this compound.
Reported IC50 for Cc1nc2c(F)cc(NC(=O)c3sc(N4CCNC(C)C4)cc3F)cc2o1 (stereo not drawn) : what is it? > 10000 nM

----------
Test system: HiBiT-tagged MYB protein
Assay: HiBiT protein abundance assay, MYB (K562 HiBiT knock-in cells)
Assay type: cell-based, human
Conditions: 24 hours
READOUT KIND: IC50

# example entries with known answers
compound="C[C@@H]1CN(c2ccc(C(=O)Nc3cc(F)c4nn(C)cc4c3)c3nccnc23)C[C@@H](C)N1 [Compound 335]" assay_result="100 to 1000 nM"
compound="Cc1cn2cc(NC(=O)c3ccc(N4CCN(C)[C@@H](C)C4)c4ccnnc34)cc(F)c2n1 [Compound 150]" assay_result="100 to 1000 nM"
compound="Cc1nc(NC(=O)c2ccc(N3CCNCC3)c3ccnnc23)cc2cn(C)nc12 [Compound 178]" assay_result="100 to 1000 nM"
compound="CNc1nc(NC(=O)c2ccc(N3C[C@@H](C)N[C@@H](C)C3)c3nccnc23)cn2cc(C)nc12 [Compound 308]" assay_result="1000 to 10000 nM"
compound="Cc1cn2cc(NC(=O)c3ccc(C4CCN(C)CC4)c4ccnnc34)cc(F)c2n1 [Compound 140]" assay_result="< 100 nM"

Each compound below has a reported value. Please supply its IC50.
1. CCNC1CCN(c2ccc(C(=O)Nc3cc(F)c4nc(C)cn4c3)c3nc(C)ccc23)CC1 [Compound 228]
2. Cc1ccc2c(N3C[C@@H](C)N[C@@H](C)C3)ccc(C(=O)Nc3cc(F)c4nc(C)cn4c3)c2n1 [Compound 214]
3. Cc1cn2cc(NC(=O)c3ccc(N4C[C@@H](C)NC5(CC5)C4)c4nccnc34)cc(F)c2n1 [Compound 376]
4. Cc1cn2cc(NC(=O)c3ccc(N4C[C@@H](C)N[C@@H](C)C4)c4ncc(O)nc34)cc(F)c2n1 [Compound 275]
5. Cc1cn2nc(NC(=O)c3ccc(N4C[C@@H](C)N[C@@H](C)C4)c4nccnc34)cc2c(C)n1 [Compound 354]

< 100 nM
< 100 nM
100 to 1000 nM
> 10000 nM
100 to 1000 nM
